SYSTEM TESTED: calmodulin (recombinant, from the expression construct pETCM with vertebrate CaM cDNA) ( (vertebrate CaM cDNA), UniProt P0DP23 2-149)
PROTOCOL TEXT: SPR; Biacore 3000; CaM immobilised by amine coupling (4000 RU); peptide 2.5-200 μM injected; 10 mM HEPES pH 7.5, 150 mM NaCl, 4 mM CaCl2, 0.005% P-20; 30 μl/min; two-state conformational change model; also 2-site model on equilibrium RU
MEASUREMENT SETUP: both partners purified
MEASUREMENT LABEL: pKd
Entry type: numeric. Quantity: pKd, the -log10 of concentration in molar units.

QUERY: # pKd lookup, item HKGFKGVDAQGTLSKIFKL (myelin basic protein, human, 18.5-kDa isoform, residues 138-156; also called the peptide; myelin peptide; source: synthetic peptide, 95% purity; bought: Genemed Synthesis) [MBP peptide HKGFKGVDAQGTLSKIFKL, residues 138-156 of the human MBP 18.5 kDa isoform]
RESULT: 4.24
